meta.source: patent US9920017B2

Test name: Determination of log P values by HPLC (reversed-phase C18)
Assay type: physicochemical
Experimental parameters: compounds of formula (IIa-1), R3 hydrogen
Measure name: logP (neutral)

Examples with their reported logP (neutral) follow.
> print(dat)
               smiles.notation  result.value
1         Nc1ncn(-c2ccccc2I)n1          1.13
2  Nc1ncn(-c2ccccc2C(F)(F)F)n1          1.16
3      Cc1cccc(F)c1-n1cnc(N)n1          1.03
4        Nc1ncn(-c2ccccc2Cl)n1          0.96
5   Nc1ncn(-c2c(F)ccc(F)c2F)n1          0.84

1. Nc1ncn(-c2cccc(Cl)c2Cl)n1
2. Nc1ncn(-c2c(F)cc(F)cc2F)n1
Between 1 and 2 , whose measured logP (neutral) reads higher? Could you answer with the label of the item you picked?
1

* * *

Test name: Determination of log P values by HPLC (reversed-phase C18)
Format: physicochemical
Experimental parameters: N-[1-aryl-1H-1,2,4-triazol-3-yl]benzamides, formula (1-9)
Measure name: logP (neutral)

> print(dat)
                                    compound    measure.name  result.value
 1  O=C(Nc1ncn(-c2cccc(Cl)c2Cl)n1)c1ccccc1 [1-9 R1=Cl R2m=3-Cl]  logP (neutral)          2.11
 2  O=C(Nc1ncn(-c2ccccc2Cl)n1)c1ccccc1 [1-9 R1=Cl R2m=—]  logP (neutral)          1.75
 3  O=C(Nc1ncn(-c2c(F)cccc2Cl)n1)c1ccccc1 [1-9 R1=Cl R2m=6-F]  logP (neutral)          1.75
 4  O=C(Nc1ncn(-c2c(F)ccc(F)c2F)n1)c1ccccc1 [1-9 R1=F R2m=3,6-F2]  logP (neutral)          1.73
 5  O=C(Nc1ncn(-c2c(F)cc(F)cc2F)n1)c1ccccc1 [1-9 R1=F R2m=4,6-F2]  logP (neutral)          1.71
 6  O=C(Nc1ncn(-c2c(Cl)cccc2Cl)n1)c1ccccc1 [1-9 R1=Cl R2m=6-Cl]  logP (neutral)           1.8
 7  O=C(Nc1ncn(-c2ccccc2Br)n1)c1ccccc1 [1-9 R1=Br R2m=—]  logP (neutral)          1.80
 8  O=C(Nc1ncn(-c2ccccc2I)n1)c1ccccc1 [1-9 R1=I R2m=—]  logP (neutral)          1.87
 9  O=C(Nc1ncn(-c2ccc(Cl)cc2Cl)n1)c1ccccc1 [1-9 R1=Cl R2m=4-Cl]  logP (neutral)          2.18
10  Cc1cccc(F)c1-n1cnc(NC(=O)c2ccccc2)n1 [1-9 R1=F R2m=6-CH3]  logP (neutral)          1.89
11  O=C(Nc1ncn(-c2c(F)cccc2I)n1)c1ccccc1 [1-9 R1=F R2m=6-I]  logP (neutral)          1.79
12  O=C(Nc1ncn(-c2cc(Cl)ccc2Cl)n1)c1ccccc1 [1-9 R1=Cl R2m=5-Cl]  logP (neutral)          2.17

* * *

Test name: Determination of log P values by HPLC (reversed-phase C18)
Assay type: physicochemical
Experimental parameters: reversed-phase C18 HPLC column; HPLC, reversed-phase C18, 55° C.; final compounds table; read-out: log P neutral
Method: 1) Description of Method for Determination of the Log P Values ([…]) The log P values given in the table were determined in accordance with EEC Directive 79/831 Annex V.A8 by HPLC (High Performance Liquid Chromatography) using a reversed-phase column (C 18). […] Calibration was effected with unbranched alkan-2-ones (having 3 to 16 carbon atoms) with known log P values (log P values determined on the basis of the retention times by linear interpolation between two successive alkanones). […]
Measure name: chromatographic logP

> print(dat)
                            smiles.notation          measure.name  result.value
1  O=C(Nc1nnn(-c2ccccc2)n1)c1ccccc1C(F)(F)F  chromatographic logP          2.57
2  O=C(Nc1ncn(-c2ncc(F)cc2F)n1)c1ccccc1C(F)(F)F  chromatographic logP          1.76
3  COc1cc(F)ccc1-n1nnc(NC(=O)c2ccccc2C(F)(F)F)n1  chromatographic logP          2.35
4  COc1ccccc1-n1nnc(NC(=O)c2ccccc2C(F)(F)F)n1  chromatographic logP          2.19
5  O=C(Nc1ncn(-c2c(F)cccc2F)n1)c1ccccc1C(F)(F)F  chromatographic logP          1.97

* * *

Test name: Determination of log P values by HPLC (reversed-phase C18)
Type: physicochemical
Experimental parameters: reversed-phase C18 HPLC column, pH 3.4; HPLC-MS, preparation examples; read-out: log P
Measure name: chromatographic logP

As a guide, the following entries are already answered.
> print(dat)
                            smiles.notation  result.value
1  COc1ccccc1-n1nnc(NC(=O)c2ccccc2C(F)(F)F)n1          2.19
2                   Nc1ncn(-c2ncc(F)cc2F)n1           0.3

A. O=C(Nc1ncn(-c2ncc(F)cc2F)n1)c1ccccc1C(F)(F)F
B. O=C(Nc1nnn(-c2ccccc2)n1)c1ccccc1C(F)(F)F
Of the pair A and B , name the member with the lesser recorded chromatographic logP. // return label of chosen record
A
(A: 1.76, B: 2.57)

A. COc1cc(F)ccc1-n1nnc(NC(=O)c2ccccc2C(F)(F)F)n1
B. O=C(Nc1nn[nH]n1)c1ccccc1C(F)(F)F
Looking at A and B , which one comes out lower in chromatographic logP terms? I would appreciate it if you answered with the label of your choice.
B
(B: 1.17, A: 2.35)

* * *

Test name: Determination of log P values by HPLC (reversed-phase C18)
Assay type: physicochemical
Experimental parameters: HPLC, reversed-phase C18, 55° C.; final compounds table
Measure name: log P neutral

> print(dat)
                                    compound  result.value
 1  O=C(Nc1ncn(-c2ccccc2Cl)n1)c1c(F)cccc1F [Compound I-1-6]          1.90
 2  Cc1cccc(F)c1-n1cnc(NC(=O)c2ccccc2Cl)n1 [Compound I-1-38]          1.99
 3  O=C(Nc1ncn(-c2c(F)cccc2C(F)(F)F)n1)c1ccccc1C(F)(F)F [Compound I-1-26]          2.25
 4  O=C(Nc1ncn(-c2c(F)cc(F)cc2F)n1)c1ccccc1I [Compound I-1-63]          2.00
 5  CCc1ccccc1C(=O)Nc1ncn(-c2c(F)ccc(F)c2F)n1 [Compound I-1-60]          2.21
 6  O=C(Nc1ncn(-c2c(F)c(F)c(F)c(F)c2F)n1)c1ccccc1C(F)(F)F [Compound I-1-65]          2.49
 7  O=C(Nc1ncn(-c2ccccc2I)n1)c1ccccc1C(F)(F)F [Compound I-1-75]          2.20
 8  Cc1cccc(F)c1-n1cnc(NC(=O)c2ccccc2I)n1 [Compound I-1-39]          2.13
 9  CCc1ccccc1C(=O)Nc1ncn(-c2c(F)c(F)c(F)c(F)c2F)n1 [Compound I-1-68]          2.61
10  O=C(Nc1ncn(-c2cccc(Cl)c2Cl)n1)c1ccccc1Cl [Compound I-1-52]          2.29
11  CCc1ccccc1C(=O)Nc1ncn(-c2ccccc2C(F)(F)F)n1 [Compound I-1-95]          2.33
12  O=C(Nc1ncn(-c2c(F)ccc(F)c2F)n1)c1ccccc1I [Compound I-1-59]          2.03
13  O=C(Nc1ncn(-c2c(F)c(F)c(F)c(F)c2F)n1)c1ccccc1Cl [Compound I-1-66]          2.28
14  O=C(Nc1ncn(-c2ccccc2OC(F)(F)F)n1)c1ccccc1C(F)(F)F [Compound I-1-10]          2.51
15  O=C(Nc1ncn(-c2c(F)ccc(F)c2F)n1)c1ccccc1Cl [Compound I-1-58]          1.91
16  O=C(Nc1ncn(-c2c(Cl)cccc2Cl)n1)c1ccccc1C(F)(F)F [Compound I-1-44]          2.26
17  O=C(Nc1ncn(-c2cc(Cl)ccc2Cl)n1)c1ccccc1Cl [Compound I-1-55]          2.34
18  COc1ccccc1C(=O)Nc1ncn(-c2c(F)cccc2F)n1 [Compound I-1-16]          1.91
19  O=C(Nc1ncn(-c2c(F)cc(F)cc2F)n1)c1ccccc1C(F)(F)F [Compound I-1-61]          2.05
20  O=C(Nc1ncn(-c2c(F)cccc2F)n1)c1ncccc1C(F)(F)F [Compound I-1-91]          1.82
21  O=C(Nc1ncn(-c2ccccc2I)n1)c1ccccc1Cl [Compound I-1-76]          2.01
22  O=C(Nc1ncn(-c2c(F)cccc2Cl)n1)c1ccccc1Cl [Compound I-1-36]          1.83
